Protocol Text: Induction of adiponectin secretion in human BMMSC cells assessed as fold increase in adiponectin level at 10 uM in presence of IDX induction medium by ELISA assay
Type: functional, Mesenchymal stem cells
Quantity Name: fold change (FC)
// print number alone

The cases that follow already have their fold change (FC) on record.
Problem: Fill in: fold change (FC) of `CC(C)=CCOc1cc(OCC=C(C)C)c2c(=O)cc(-c3ccccc3)oc2c1` is ___
Solution: 4.8

Problem: What value of fold change (FC) has been reported for the following compound? `CC(C)=CCOc1cc(OCc2ccccc2)c2c(=O)cc(-c3ccccc3)oc2c1`
Solution: 3.8

Problem: Consider the compound shown here: `CC(C)=CCOc1cc(OCc2ccccc2)cc2oc(-c3ccccc3)cc(=O)c12` What is its recorded fold change (FC)?
Solution: 3.3

Continue with the compound presented below.
Problem: Using the record for O=c1cc(-c2ccccc2)oc2cc(O)cc(O)c12 [CHRYSIN] , report its fold change (FC).
Solution: 2.3
